Test system: OVCAR-8 ovarian
Assay: NCI-60 one-dose screen, 48 h
Settings: 10 µM unless noted
About 83,000 compounds went through this panel and 20% of them were active in at least one assay; those are over-represented in the sample as a whole. Active and inactive are the calls of the source. Rule for the calls: active = growth percent below 10; inactive = the rest.
Response enum: active, inactive

| Compound | Group |
| --- | --- |
| Fc1ccc2c(c1)c(-c1nc(-c3c[nH]c4ncccc34)cs1)cn2CCN1CCOCC1 | inactive |
| CC(CO)NC1CCCCC1 (stereo not drawn) | inactive |
| O=C(O)CNC(=O)C(Cl)(Cl)Cl | inactive |

Attention now turns to another entry.
Lookup: Hi, do you know how C=CC[n+]1ccc(-c2cc[n+](CC=C)cc2)cc1 came out in this test?
Found: inactive

###

Tested on: PC-3 prostate
Experiment: NCI-60 one-dose screen, 48 h (100 = growth as untreated, 0 = no growth, -100 = all killed)
Conditions: 10 µM unless noted
The panel holds about 83,000 compounds, 20% with a hit somewhere; the sample as a whole holds those more often.
# maps each entry to its growth
Numbers only; they are read as %.

| Compound | Target or system | Measure unit | growth |
| --- | --- | --- | --- |
| O=C(c1cccc(O)c1O)c1cn(Cc2ccc(F)cc2)c2cccc(O)c12 | PC-3 prostate | % | 39.2 |

Lookup: Reported growth for PC-3 prostate, given CC(=O)Nc1ccc(NC(=O)c2ccc([As](O)O)cc2)cc1 ?
Found: 100

Lookup: // map CCCCCCCCC(CO)NCCc1ccccc1 (stereo unspecified) to recorded growth (system: PC-3 prostate)
Found: 73.5

###

System: NCI-H522 lung
Experiment: NCI-60 one-dose screen, 48 h (100 = growth as untreated, 0 = no growth, -100 = all killed)
Conditions: 10 µM unless noted
The panel holds about 83,000 compounds, 20% with a hit somewhere; the sample as a whole holds those more often.
Listing of recorded growth by entry.
Provide only the numeric value, understood in %.

| Compound | Reported measurement |
| --- | --- |
| CN(CCCCN(C)CCOS(C)(=O)=O)CCOS(C)(=O)=O | 81.3 |
| CCN(CCO)C(Cc1ccccc1)c1ccccc1 (stereo unspecified) | 87.9 |
| O=[N+]([O-])c1ccc(OP(=O)(CCl)N(CCCl)CCCl)cc1 (stereo unspecified) | 74.8 |

Lookup: Consider the compound Cc1ccc(S(=O)(=O)F)cc1C(=O)O and give its measured growth.
Found: 85.8

Lookup: Returns the measured growth for the input compound. Input: CN1CCC(c2c[nH]c3ccccc23)C1 (stereo unspecified)
Found: 79.5

Lookup: Given the compound COc1ccc(NC([Se])=NC23CC4CC(CC(C4)C2)C3)cc1 , what is its reported growth?
Found: -32.6

Lookup: For the compound CCC(O)(CN)c1ccccc1 (stereo unspecified) , what growth is on record?
Found: 79.2

Lookup: # growth lookup, item O=C1CCC2(O)[C@@H]3Cc4ccc(O)c5c4[C@]2(CCN3Cc2ccoc2)C1O5 (stereo partly specified)
Found: 95.4

Lookup: What does the data say about its growth? Entry: C[C@@H]1C[C@@]2(C)[C@@H](CC[C@@H]3[C@@H]2CC[C@]2(C)C(=O)CC[C@@H]32)CC1=O
Found: 91.9

Lookup: Can you share its growth? I mean this compound: COc1cc([N+](=O)[O-])c2nc(C)ccc2c1[N+](=O)[O-]
Found: 87.2

Lookup: # get_value(readout='growth', item= COC1=CC(=O)O[C@@H](/C=C/c2ccc3c(c2)OCO3)C1 )
Found: 98.3

// data source = PubChem BioAssay (NCI)
